study-target: human urotensin II receptor (Homo sapiens, UniProt Q9UKP6)
Construct: expressed in transfected cells; host or cells: NIH3T3 cells
assay-explanation: Receptor Selection and Amplification (R-SAT) functional assay, NIH3T3 cells transfected with human urotensin II receptor and β-galactosidase marker
Format: cell-based
experimental-conditions: Table 3, negative of the log EC50 in molarity, average ± standard deviation (or range) of determinations, eight doses in triplicate
quantity: pEC50

Prompt line: Reported pEC50, compound Cc1cc(Br)ccc1C(=O)OC(CCN(C)C)c1ccc(Cl)cc1.Cl (stereo not shown) : ____
Response line: 5.97

Prompt line: Reported pEC50, compound CN(C)CCC(NC(=O)c1ccc(-c2ccccc2)cc1)c1ccc(Cl)cc1.O=C(O)C(=O)O (stereo not shown) : ____
Response line: 7.11

Prompt line: Reported pEC50, compound Cc1cccc(C(=O)NC(CCN(C)C)c2ccc(Cl)cc2)c1C.O=C(O)C(=O)O (stereo not shown) : ____
Response line: 5.44

Prompt line: Reported pEC50, compound Cc1ccc(C)c(C(=O)NC(CCN(C)C)c2ccc(Cl)cc2)c1.O=C(O)C(=O)O (stereo not shown) : ____
Response line: 5.54

Prompt line: Reported pEC50, compound Cc1c(Cl)cccc1C(=O)NC(CCN(C)C)c1ccc(Cl)cc1.O=C(O)C(=O)O (stereo not shown) : ____
Response line: 5.76

Prompt line: Reported pEC50, compound CN(C)CCC(OC(=O)c1ccc2ccccc2c1)c1ccc(Cl)cc1.Cl (stereo not shown) : ____
Response line: 5.68

Prompt line: Reported pEC50, compound Cc1ccsc1C(=O)OC(CCN(C)C)c1ccc(Cl)cc1.Cl (stereo not shown) : ____
Response line: 5.60

Prompt line: Reported pEC50, compound Cc1cc(C)c(C(=O)OC(CCN(C)C)c2ccc(Cl)cc2)cc1C.Cl (stereo not shown) : ____
Response line: 6.33

Prompt line: Reported pEC50, compound Cc1c(Cl)cccc1C(=O)OC(CCN(C)C)c1ccc(Cl)cc1.Cl (stereo not shown) : ____
Response line: 5.95

Prompt line: Reported pEC50, compound CN(C)CCC(NC(=O)c1ccc(N(C)C)cc1)c1ccc(Cl)cc1.O=C(O)C(=O)O (stereo not shown) : ____
Response line: 5.87

Prompt line: Reported pEC50, compound COc1cccc(C(=O)NC(CCN(C)C)c2ccc(Cl)cc2)c1C.O=C(O)C(=O)O (stereo not shown) : ____
Response line: 5.37

Prompt line: Reported pEC50, compound Cc1ccccc1C(=O)NC(CCN(C)C)c1ccc(Cl)cc1.O=C(O)C(=O)O (stereo not shown) : ____
Response line: 5.45

Prompt line: Reported pEC50, compound COc1cccc(NC(=O)NC(CCN(C)C)c2ccc(Cl)cc2)c1 (stereo not shown) : ____
Response line: 5.87

Prompt line: Reported pEC50, compound CN(C)CCC(NC(=O)c1ccccc1)c1ccc(Cl)cc1.Cl (stereo not shown) : ____
Response line: 5.85

Prompt line: Reported pEC50, compound Cc1cc(C)c(C(=O)NC(CCN(C)C)c2ccc(Cl)cc2)cc1C.O=C(O)C(=O)O (stereo not shown) : ____
Response line: 5.75

Prompt line: Reported pEC50, compound Cc1ccc(S(=O)(=O)NC(CCN(C)C)c2ccc(Cl)cc2)cc1.O=C(O)C(=O)O (stereo not shown) : ____
Response line: 5.19

Prompt line: Reported pEC50, compound COc1cccc(NC(=O)OC(CCN(C)C)c2ccc(Cl)cc2)c1 (stereo not shown) : ____
Response line: 5.95

Prompt line: Reported pEC50, compound CCc1ccccc1C(=O)OC(CCN(C)C)c1ccc(Cl)cc1.Cl (stereo not shown) : ____
Response line: 5.89

Prompt line: Reported pEC50, compound CN(C)CCC(NC(=O)c1ccc2c(c1)OCO2)c1ccc(Cl)cc1.O=C(O)C(=O)O (stereo not shown) : ____
Response line: 5.67

====

study-target: human urotensin II receptor (Homo sapiens, UniProt Q9UKP6)
Construct: expressed in transfected cells; host or cells: NIH3T3 cells
assay-explanation: Receptor Selection and Amplification (R-SAT) functional assay, NIH3T3 cells transfected with human urotensin II receptor and β-galactosidase marker
Type: cell-based
experimental-conditions: Table 3, negative of the log EC50 in molarity, average ± standard deviation (or range) of determinations, eight doses in triplicate
pEC50: −log10 of the molar value. Structures can show the parent of a compound that is named as a salt.
quantity: pEC50

# annotated cases, reported pEC50 shown
Prompt line: Reported pEC50, molecule CN(C)CCC(NC(=O)c1ccc(-c2ccccc2)cc1)c1ccc(Cl)cc1 (single isomer, unassigned; (-)) [(−) 5o, oxalate] : ____
Response line: 5.92 to 5.94

Prompt line: Reported pEC50, molecule CN(C)CCC(NC(=O)NCc1ccccc1)c1ccc(Cl)cc1 (stereo not shown) : ____
Response line: 5.64 to 5.75

Prompt line: Reported pEC50, molecule CN(C)CCC(NC(=O)c1ccc(-c2ccccc2)cc1)c1ccc(Cl)cc1.O=C(O)C(=O)O (single isomer, unassigned; (+)) [(+) 5o, oxalate] : ____
Response line: 7.56 to 7.91

Consider the record given below.
Prompt line: Reported pEC50, molecule COc1cccc(C(=O)OC(CCN(C)C)c2ccc(Cl)cc2)c1C (stereo not shown) [4e, HCl] : ____
Response line: 5.68

====

study-target: human urotensin II receptor (Homo sapiens)
Construct: expressed in transfected cells; host or cells: NIH3T3 cells
assay-explanation: Receptor Selection and Amplification (R-SAT) functional assay, NIH3T3 cells transfected with human urotensin II receptor and β-galactosidase marker
Format: cell-based
experimental-conditions: NIH3T3, Table 4, % efficacy normalized to UII at 100%
Experimental: The functional receptor assay, Receptor Selection and Amplification Technology (R-SAT™), was used (with minor modifications from the procedure described previously (Brann, M. R. U.S. Pat. No. 5,707,798, 1998; Chem. Abstr. 1998, 128, 111548) to screen compounds for efficacy at the UII receptor. The RSAT assay was conducted as described herein. […] Results were determined in R-SAT assays and are expressed as pEC50, the negative of the log EC50 in molarity. […]
Where a name gives a salt, the structure may show the parent alone.
quantity: Emax (%)

1 = CN(C)CCC(NC(=O)C=Cc1ccc(C(F)(F)F)cc1)c1ccc(Cl)cc1 (centres unmarked) [A8, HCl]
2 = CN(C)CCC(NC(=O)CCc1ccc(C(F)(F)F)cc1)c1ccc(Cl)cc1 (centres unmarked) [A5, HCl]
Prompt line: In terms of reported Emax, does 1 or 2 have the smaller number? Output the label that corresponds to your choice.
Response line: 2
(2: 73%, 1: 133%)

A = CN(C)CCC(NC(=O)C#Cc1ccccc1)c1ccc(Cl)cc1 (centres unmarked) [A10, HCl]
B = CN(C)CCC(NC(=O)Cc1ccccc1)c1ccc(Cl)cc1 (centres unmarked) [A1, HCl]
Prompt line: In terms of reported Emax, does A or B have the smaller number? Output the label that corresponds to your choice.
Response line: B

I = CN(C)CCC(NC(=O)C#Cc1ccccc1)c1ccc2ccccc2c1 (centres unmarked) [C10, HCl]
II = COc1ccc(CC(=O)NC(CCN(C)C)c2ccc(C)cc2)cc1 (centres unmarked) [B3, HCl]
Prompt line: In terms of reported Emax, does I or II have the smaller number? Output the label that corresponds to your choice.
Response line: II

a = COc1ccc(C=CC(=O)NC(CCN(C)C)c2ccc(Cl)cc2)cc1 (centres unmarked) [A9, HCl]
b = COc1ccc(CCC(=O)NC(CCN(C)C)c2ccc(C)cc2)cc1 (centres unmarked) [B6, HCl]
Prompt line: In terms of reported Emax, does a or b have the smaller number? Output the label that corresponds to your choice.
Response line: b
(b: 67%, a: 99%)

A = CN(C)CCC(NC(=O)/C=C/c1ccccc1)c1ccc(Cl)cc1 (centres unmarked) [A7, HCl]
B = Cc1ccc(C(CCN(C)C)NC(=O)CCc2ccc(C(F)(F)F)cc2)cc1 (centres unmarked) [B5, HCl]
Prompt line: // pick larger Emax from pair: A vs B Output the label that corresponds to your choice.
Response line: A
(A: 128%, B: 60%)

====

study-target: human urotensin II receptor (Homo sapiens, UniProt Q9UKP6)
Construct: expressed in transfected cells; host or cells: NIH3T3 cells
Sequence (Q9UKP6 1-389): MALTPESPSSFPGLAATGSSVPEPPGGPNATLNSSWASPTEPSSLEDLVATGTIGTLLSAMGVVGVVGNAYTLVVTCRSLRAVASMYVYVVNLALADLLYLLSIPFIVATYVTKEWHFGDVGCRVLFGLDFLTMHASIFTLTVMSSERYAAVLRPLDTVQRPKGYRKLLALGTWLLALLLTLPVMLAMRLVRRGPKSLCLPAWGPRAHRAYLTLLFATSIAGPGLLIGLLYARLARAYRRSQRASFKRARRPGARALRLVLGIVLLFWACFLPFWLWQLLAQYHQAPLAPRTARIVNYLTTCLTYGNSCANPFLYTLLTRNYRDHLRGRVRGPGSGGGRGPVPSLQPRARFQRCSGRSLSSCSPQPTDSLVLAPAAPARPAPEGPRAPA
assay-explanation: Receptor Selection and Amplification (R-SAT) functional assay, NIH3T3 cells transfected with human urotensin II receptor and β-galactosidase marker
Assay type: cell-based
experimental-conditions: NIH3T3, Table 3, percent activation normalized to the reference ligand assigned 100%, read-out: Efficacy
quantity: Emax (%)

# annotated cases, reported Emax shown
Prompt line: Recall the recorded Emax for CN(C)CCC(NC(=O)c1ccccc1)c1ccc(Cl)cc1.Cl (stereo not drawn) [5a, HCl] with human urotensin II receptor (Homo sapiens, UniProt Q9UKP6) and state it.
Response line: 158

Prompt line: Recall the recorded Emax for Cc1cc(C)c(C(=O)NC(CCN(C)C)c2ccc(Cl)cc2)cc1C.O=C(O)C(=O)O (stereo not drawn) [5m, oxalate] with human urotensin II receptor (Homo sapiens, UniProt Q9UKP6) and state it.
Response line: 152

Prompt line: Recall the recorded Emax for CN(C)CCC(OC(=O)NCc1ccccc1)c1ccc(Cl)cc1 (stereo not drawn) with human urotensin II receptor (Homo sapiens, UniProt Q9UKP6) and state it.
Response line: 180

P = Cc1cc(Br)ccc1C(=O)OC(CCN(C)C)c1ccc(Cl)cc1.Cl (stereo not drawn) [4g, HCl]
Q = Cc1ccc(C)c(C(=O)NC(CCN(C)C)c2ccc(Cl)cc2)c1.O=C(O)C(=O)O (stereo not drawn) [5j, oxalate]
Prompt line: In terms of reported Emax, does P or Q have the smaller number? Output the label that corresponds to your choice.
Response line: P
